Biological target: T1, cMetECDHis (human, UniProt P08581 25-932, limits assumed, biotinylated in the cross-block ELISA of Example 17)
T1 construct: Expressed in HEK-293F cells; also called soluble cMetECDHis; biotinylated cMetECDHis
Test: cross-block ELISA; competitor 022
REPORTED_METRIC: residual binding, % of no competitor (%)
One number for each entry, in %.

| BINDER | residual binding, % of no competitor, % |
| --- | --- |
| anti-c-Met HuMab 045 (IgG1) (antibody, V domains shown, also called TH1016-045; PC1016-045) VH: EVQLLESGGGLVQPGGSLRLSCAASGFTFSSYAMSWVRQAPGKGLEWVSVISGSGGITYYADSVKGRFTISRDNSKNTLYLQMNSLRAEDTAVYYCARDRGWGSDYWGQGTLVTVSS VL: EIVLTQSPATLSLSPGERATLSCRASQSVSSYLAWYQQKPGQAPRLLIYDASNRATGIPARFSGSGSGTDFTLTISSLEPEDFAVYYCQQRSNWPFTFGPGTKVDIK | 105 |

Query block: Recall and state the measured residual binding, % of no competitor for IgG1-024 (antibody, V domains shown, also called TH1016-024; PC1016-024) VH: EVQLLESGGGLVQPGGSLRLSCVASGFTFSSYAMSWVRQAPGKGLEWVSAISGSSGGSTYYVDSVKGRFTISRANSKNTLYLQMNSLRAEDTAVYYCAKDLDRGWMGYFGYWGQGTLVTVSS VL: DIQMTQSPSSVSASVGDRVTITCRASQGISSWLAWYQHKPGKAPKLLIYAASSLQSGVPSRFSGSGSGTDFTLTISSLQPEDFATYYCQQANSFPTFGQGTRLEIK .
Result block: 100
